Biological target: human recombinant serotonin (5-Hydroxytryptamine) 5-HT2A receptor (Homo sapiens, UniProt P28223)
Construct: expressed in transfected cells; host or cells: Chinese hamster ovary (CHO-K1) cells
Assay: Serotonin 5-HT2A radioligand binding ([3H]Ketanserin)
Conditions: read-out: Inhibition of ligand binding, Serotonin 5-HT2A (percent inhibition of specific binding), compound at 0.1 μM
Procedure: Compounds of the invention were incubated with 0.5 nM [^3H]Ketanserin for 60 min. at 25° C. Non-specific binding was estimated in the presence of 1 μM Mianserin. Receptor proteins were filtered and washed, the filters were then counted to determine [^3H]Ketanserin specifically bound.
Each entry gets f if its inhibition at 0.1 µM stays under 90%, and t if its inhibition at 0.1 µM is 90% or above.

C/C(=C\n1c2c(c3cc(Cl)ccc31)CN(C)CC2)c1ccc(Cl)cc1 t
C/C(=C\n1c2c(c3cc(F)ccc31)CN(C)CC2)c1ccc(C)nc1 f
C/C(=C\n1c2c(c3ccc(Cl)cc31)CN(C)CC2)c1ccc(C)nc1 f

QUERY: Does the reported inhibition at 0.1 µM for CC/C(=C/n1c2c(c3cc(Cl)ccc31)CN(C)CC2)c1ccncc1 fall at or above the 90% mark?
RESULT: t

QUERY: Also C/C(=C/n1c2c(c3cc(Cl)ccc31)CN(C)CC2)c1ccc(Cl)c(Cl)c1 , if possible.
RESULT: t

QUERY: Also C/C(=C\n1c2c(c3cc(C(C)C)ccc31)CN(C)CC2)c1ccncc1 , if possible.
RESULT: f

QUERY: Also C/C(=C\n1c2c(c3cc(C)ccc31)CN(C)CC2)c1cc(Cl)cc(Cl)c1 , if possible.
RESULT: t

---

Target: human dopamine D2L receptor (Homo sapiens)
Sequence (P14416 whole entry): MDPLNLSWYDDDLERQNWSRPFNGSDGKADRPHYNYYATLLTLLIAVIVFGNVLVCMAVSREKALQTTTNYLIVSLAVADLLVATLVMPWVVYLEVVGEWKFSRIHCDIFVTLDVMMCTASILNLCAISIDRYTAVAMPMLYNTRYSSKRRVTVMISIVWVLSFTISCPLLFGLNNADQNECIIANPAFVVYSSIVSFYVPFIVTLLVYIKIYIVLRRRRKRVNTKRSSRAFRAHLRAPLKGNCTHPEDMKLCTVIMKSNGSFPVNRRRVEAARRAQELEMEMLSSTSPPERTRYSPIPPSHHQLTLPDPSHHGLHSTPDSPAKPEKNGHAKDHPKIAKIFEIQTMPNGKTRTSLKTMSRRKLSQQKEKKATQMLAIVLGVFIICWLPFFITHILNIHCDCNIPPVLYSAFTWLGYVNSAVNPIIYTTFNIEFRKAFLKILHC
Assay: Dopamine D2L radioligand binding ([3H]Spiperone)
Settings: percent inhibition of specific binding; compound at 1 μM; 1 µM
Each entry gets no if its Inhibition of ligand binding, Dopamine D2L stays under 90%, and yes if its Inhibition of ligand binding, Dopamine D2L is 90% or above.

Completed entries (count: 2):
Compound	Tgt	Group Label
CN1CCc2c(c3cc(Cl)ccc3n2C/C(=C/CCO)c2ccc(F)cc2)C1	human dopamine D2L receptor (Homo sapiens)	no
C/C(=C\n1c2c(c3cccc(F)c31)CN(C)CC2)c1ccncc1	human dopamine D2L receptor (Homo sapiens)	yes

QUERY: Does the reported Inhibition of ligand binding, Dopamine D2L for CCOC(=O)/C=C(/Cn1c2c(c3cc(C)ccc31)CN(C)CC2)c1ccccc1 fall at or above the 90% mark?
RESULT: no

QUERY: Also CN1CCc2c(c3cc(Cl)ccc3n2/C=C(/c2ccc(F)cc2)C2CC2)C1 , if possible.
RESULT: yes

QUERY: Also CN1CCc2c(c3cc(Cl)ccc3n2/C=C(\c2ccc(F)cc2)C2CC2)C1 , if possible.
RESULT: no

QUERY: Also CCC(O)(Cn1c2c(c3cc(Cl)ccc31)CN(C)CC2)c1ccc(F)cc1 (stereo not drawn) , if possible.
RESULT: no

QUERY: Also C/C(=C\n1c2c(c3cc(F)ccc31)CN(C)CC2)c1ccncc1 , if possible.
RESULT: yes

QUERY: Also CN1CCc2c(c3cc(Cl)ccc3n2C/C(=C\CCO)c2ccc(F)cc2)C1 , if possible.
RESULT: no

QUERY: Also COc1ccc(/C(C)=C/n2c3c(c4cc(Cl)ccc42)CN(C)CC3)cc1 , if possible.
RESULT: yes

QUERY: Also C/C(=C\n1c2c(c3cc(Cl)ccc31)CN(C)CC2)c1ccncc1 , if possible.
RESULT: yes
